System: SW480
test_name: Antiproliferative activity against human SW480 cells assessed as inhibition of cell growth incubated for 48 hrs by CCK-8 assay
Type: functional, cell-based
experimental_setup: SW480, 48 h
This listing pairs molecules with measured pIC50.
Lab note: report pIC50 as minus log10 of the concentration in molar units, number only.

Look over these answered cases.
1) Cc1ccc(C(=O)/C=C/c2cn(S(=O)(=O)c3ccc([N+](=O)[O-])cc3)c3ccc(N4CCOCC4)cc23)c(C)n1 6.18
2) O=C(/C=C/c1cn(S(=O)(=O)c2ccc([N+](=O)[O-])cc2)c2ccc(N3CCOCC3)cc12)c1ccccn1 5.97
3) O=C(/C=C/c1cn(S(=O)(=O)c2ccc([N+](=O)[O-])cc2)c2ccc(N3CCOCC3)cc12)c1ccncc1 5.97
4) O=C(/C=C/c1cn(S(=O)(=O)c2ccc([N+](=O)[O-])cc2)c2ccc(N3CCOCC3)cc12)c1ncccn1 5.69

**Query** # lookup: pIC50 of O=C(/C=C/c1cn(S(=O)(=O)c2ccc([N+](=O)[O-])cc2)c2ccc(N3CCOCC3)cc12)c1cncnc1
**Result** 6.15

**Query** Could you do the same for O=C(/C=C/c1cn(S(=O)(=O)c2ccc([N+](=O)[O-])cc2)c2ccc(N3CCCCC3)cc12)c1cccnc1 , please?
**Result** 6.00

**Query** Could you do the same for O=C(/C=C/c1cn(S(=O)(=O)c2ccc([N+](=O)[O-])cc2)c2ccc(N3CCOCC3)cc12)c1cccnc1 , please?
**Result** 6.16

**Query** Could you do the same for O=C(/C=C/c1cn(S(=O)(=O)c2ccc([N+](=O)[O-])cc2)c2cc(N3CCOCC3)ccc12)c1cccnc1 , please?
**Result** 6.14
